Assay remarks: binders from COS7 lysate, DM2A8 probe, primary screen, torsin A project, cell lysate, small-molecule microarray, fluorescence 635/667 (AID 1065)
Assay conditions: higher = more signal, COS7 lysate expressing mutant human TOR1A
Measured parameter: composite z-score
Give the figure only, with no unit attached.

Compound	Measured parameter	Observed
CCOC(=O)[C@H](CC(C)C)NC(=O)CCC1CC(OC(=O)NCc2ccc3c(c2)OCO3)CC2(CCCC(COC(=O)NCCC(C)C)O2)O1 (stereo partly specified)	composite z-score	-0.146
CC(=O)OC[C@H]1O[C@@H](ON=C(C)CCN2CCCCc3nc(C)c(C)cc32)[C@H](OC(C)=O)[C@@H](OC(C)=O)[C@@H]1OC(C)=O	composite z-score	0.515
CC(C)(C)N1C(=O)[C@H]2[C@H]3[C@H](O)[C@H](O)CC(=NNC(=O)OCc4ccccc4)[C@@H]3CC[C@H]2C1=O	composite z-score	0.376
C#CCCCON=C1C[C@@H](O)[C@@H](O)[C@@H]2[C@@H]3C(=O)N(C[C@@H]4CCCO4)C(=O)[C@@H]3CC[C@@H]12	composite z-score	0.153
O=C1CCCC=C1C(O)c1ccc([N+](=O)[O-])cc1 (stereo unspecified)	composite z-score	0.267
CC(CCC(=O)OC[C@H]1O[C@H](C#Cc2ccccc2)C=C[C@@H]1Oc1ccc(C)cc1)=NO[C@@H](C)c1cc(-c2c(C)cc(C)cc2C)no1	composite z-score	-1.14
COC(=O)[C@H](CCSC)NC(=O)CC=C[C@@H](C)CO	composite z-score	2.66
CCN1C(=O)[C@H]2[C@H]3[C@H](O)[C@H](O)CC(=NOC[C@@H](O)COCc4ccco4)[C@H]3CC[C@H]2C1=O	composite z-score	2.38

(Q) What composite z-score value was documented for this compound, `CO[C@@H]1COC(=O)[C@H](COCc2ccccc2)NC(=O)CC=C[C@@H](C)[C@H](OC)COC(=O)[C@@H](C)NC(=O)CC=C[C@H]1C` ?
(A) 1.36

====

Assay remarks: small-molecule microarray binders of probe aDKK1, primary screen, biochemical, biotinylated probe, 635/667 nm fluorescence (AID 1099);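 also: score merges 667nm spot fluorescence with signal to noise across triplicate slides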
Assay conditions: higher = more signal
Returns one of label 1 or label 0; label 1 when composite z-score is >= 0.02.

# count of solved cases: 2
C[C@@H]1C=CCC(=O)OC[C@H](C)C(=O)N[C@@H](Cc2ccccc2)C(=O)OC1 label 0
CC(CCN1CCCc2nc(C)c(C)cc21)=NOC[C@@H](O)COCc1ccco1 label 1

(Q) Is the recorded value of composite z-score equal to or greater than 0.02 for this compound? `COCOc1ccc(Br)cc1C(=O)C=Cc1ccc2c(c1)OCO2`
(A) label 0

(Q) Please indicate if the recorded composite z-score for `CON=C(C)CCN1CCCc2nc(C)c(C)cc21` meets or exceeds 0.02.
(A) label 0

====

Consider the following compounds and their measured composite z-score readings.
Tested on: wheat germ agglutinin (Triticum aestivum), Alexa647-labelled
Assay remarks: wheat germ agglutinin binders on compound microarrays, profiling panel, artefact control for SMM control-protein annotation, biochemical, small-molecule microarray, 635/667 nm fluorescence (AID 1140);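 also: score merges 667 nm feature emission with signal to noise over triplicate slides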
Assay conditions: WGA-A647 binding, 635 nm fluorescence, higher = more signal

(Q) For the compound `CON=C[C@@H](OC)[C@H](C)C=CCC(=O)OC` , what composite z-score is on record?
(A) -0.115

(Q) Fill blank: measured composite z-score of the compound `CO[C@@H]1COC(=O)[C@H](COCc2ccccc2)NC(=O)CC=C[C@@H](C)[C@H](OC)COC(=O)[C@@H](C)NC(=O)CC=C[C@H]1C` is ____.
(A) -0.999

Entry source: PubChem BioAssay
